- System: CP315
- assay-protocol: qHTS profiling for inhibitors of Plasmodium falciparum proliferation (AID 504749); note: nearly all actives have a fitted effect of over 60% in size
- stated-conditions: P. falciparum in erythrocytes, SYBR Green DNA, 72 h; series mostly up to 28.7 µM
Results filed as inconclusive are left out. Active and inactive are the calls of the source. Calls come from the whole dose curve; as a rule, active = well fitted inhibition curve with a large enough effect; inconclusive = small, poorly fitted or top-dose-only effect; inactive = flat fitted curve, though single readings scatter.
Outcomes you can answer with include only these: active, inactive

NC(=O)c1ncn(C2OC(CO)C(O)C2O)c1N (stereo not given) = inactive
CCOC(=O)C(CCc1ccccc1)NC(C)C(=O)N1Cc2cc(OC)c(OC)cc2CC1C(=O)O (stereo not given) = inactive
CCCC(=O)Nc1c(I)cc(I)c(C[C@H](CC)C(=O)O)c1I = inactive

Kindly review the next compound as well.
Challenge: Each compound tested received a call. Report the one for C=C[C@H]1CN2CCC1C[C@H]2[C@H](O)c1ccnc2ccc(OC)cc12 (stereo not given in full) .
Response given: active
